- Tested on: HOP-62
- Test: NCI tumour cell line growth inhibition, 48 h
Active and inactive are the calls of the source. Cut-off read from the data, not from the text of the source: active = GI50 up to about 1.1 µM and inactive = higher.
Lab note: assign the record to one of y for active, n for inactive

Examples from the recorded data:
>  <Molecule>
Cc1cc(NC(=O)C2C3C=CC(O3)C2C(=O)O)no1 (stereo unspecified)

>  <Label Value>
n

$$$$
>  <Molecule>
C=C(C)CC1=C(C(=S)NCCO[Si](C)(C)C(C)(C)C)C(OCC)(OCC)C1=O

>  <Label Value>
n

$$$$
>  <Molecule>
O=c1c2c3c(sc2nc2n1N=C(c1ccc(Br)cc1)CS2)CCCC3

>  <Label Value>
n

$$$$
>  <Molecule>
COC1=NN2C(OC)(c3ccccc3)c3c(-c4ccccc4)sc(-c4ccccc4)c3C2(c2ccccc2)S1 (stereo unspecified)

>  <Label Value>
n

$$$$

## Task # outcome recorded in this test, key = CN(C)C(=O)C(F)(F)C(c1ccc(Br)cc1)C1C(=O)N(C)C(=O)N(C)C1=O (stereo unspecified)
## Result n

## Task Could you do the same for CN(CC(=O)O)c1ncc2c(n1)C=CCC2 , please?
## Result n

## Task Try N#Cc1ccc(Oc2ccccc2)cc1C#N next.
## Result n

## Task Next molecule: Cc1ccc(C2=Nc3cc(C)c(Cl)cc3S(=O)(=O)NN2)cc1
## Result n

## Task Please answer likewise for COC(=O)/C(C#N)=C(\Nc1ccccc1)N1CCCC1
## Result n

## Task Proceed to O=C(O)CCC(=O)c1ccc2c(c1)C(C(=O)O)CC2 (stereo unspecified)
## Result n
